Target: thrombin receptor (Homo sapiens, UniProt P25116)
Construct: washed human platelets are prepared from blood drawn from healthy volunteers; endogenous in cells; host or cells: washed human platelets from healthy volunteers
Sequence (P25116 22-425): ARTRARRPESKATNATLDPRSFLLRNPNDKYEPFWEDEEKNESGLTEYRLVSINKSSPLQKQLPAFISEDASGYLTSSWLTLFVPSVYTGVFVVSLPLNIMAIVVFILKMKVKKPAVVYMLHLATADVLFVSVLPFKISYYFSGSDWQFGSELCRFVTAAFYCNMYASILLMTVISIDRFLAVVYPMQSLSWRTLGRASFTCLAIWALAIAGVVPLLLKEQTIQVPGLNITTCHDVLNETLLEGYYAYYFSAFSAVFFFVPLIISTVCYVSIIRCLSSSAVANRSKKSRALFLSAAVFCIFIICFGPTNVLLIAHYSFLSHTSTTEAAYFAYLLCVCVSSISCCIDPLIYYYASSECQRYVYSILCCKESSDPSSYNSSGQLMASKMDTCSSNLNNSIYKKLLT
Assay: Platelet aggregation assay for thrombin receptor antagonist activity (washed human platelets stimulated with α-thrombin)
Format: cell-based
Conditions: washed human platelets, thrombin-mediated aggregation; read-out: IC50 (concentration at which 50% inhibition of platelet aggregation is achieved)
Where a SMILES comes first, the peptide text is derived from it. [ ]: non-standard residue; d: D form. The star is where a group is joined. X14 = O=C([C@H](Cc1ccccc1)N(CC1CCCCC1)CC1CCCCC1)*; X6 = CCCCCN(CCCCC)[C@@H](Cc1ccccc1)C(=O)*; Benzoyl(2-Ph) = O=C(c1ccccc1-c1ccccc1)*; X19 = CC(C)(C)CN1Cc2ccccc2C[C@H]1C(=O)*; Butanoyl(2-OPh) = CCC(Oc1ccccc1)C(=O)*; X20 = CCCCC(Oc1cccc2ccccc12)C(=O)*; Cha = N[C@@H](CC1CCCCC1)C(=O)O; dCha = N[C@H](CC1CCCCC1)C(=O)O
Consider the following compounds; for each one, report its log10 of IC50.
log10 IC50, µM

For the compound CCCCCC/C(=C\c1ccccc1)CN[C@@H](CC1CCCCC1)C(=O)N[C@@H](CC1CCCCC1)C(=O)N[C@@H](CCCNC(=N)N)C(=O)N[C@@H](CCCCN)C(N)=O , what log10 of IC50 is on record? 0.88

For the compound CC(C)(C)CN1Cc2ccccc2C[C@H]1C(=O)N[C@@H](CC1CCCCC1)C(=O)N[C@@H](CC1CCCCC1)C(=O)N[C@@H](CCCNC(=N)N)C(=O)N[C@@H](CCCCN)C(N)=O [Compound 13] (X19-[Cha][Cha]RK-NH2) , what log10 of IC50 is on record? 0.70

For the compound CCCCCN(CCCCC)[C@@H](Cc1ccccc1)C(=O)N[C@@H](CC1CCCCC1)C(=O)N[C@H](CC1CCCCC1)C(=O)N[C@@H](CCCNC(=N)N)C(=O)N[C@@H](CCCCN)C(N)=O [Compound 42] (X6-[Cha][dCha]RK-NH2) , what log10 of IC50 is on record? 0.30

For the compound CCC(Oc1ccccc1)C(=O)N[C@@H](CC1CCCCC1)C(=O)N[C@@H](CC1CCCCC1)C(=O)N[C@@H](CCCNC(=N)N)C(=O)N[C@@H](CCCCN)C(N)=O (stereo partly drawn) [Compound 10, 2-Phenoxybutyryl-Cha-Cha-Arg-Lys-NH2] ({Butanoyl(2-OPh)}-[Cha][Cha]RK-NH2) , what log10 of IC50 is on record? 1.00

For the compound CC/C(=C\c1ccccc1)CN[C@@H](CC1CCCCC1)C(=O)N[C@@H](CC1CCCCC1)C(=O)N[C@@H](CCCNC(=N)N)C(=O)N[C@@H](CCCCN)C(N)=O , what log10 of IC50 is on record? 1.30

For the compound N=C(N)NCCC[C@H](NC(=O)[C@H](CC1CCCCC1)NC(=O)[C@H](CC1CCCCC1)NC(=O)[C@H](Cc1ccccc1)N(CC1CCCCC1)CC1CCCCC1)C(=O)N[C@@H](CCCCN)C(=O)N1CCC[C@H]1C(=O)N[C@@H](CC(N)=O)C(=O)N[C@@H](CC(=O)O)C(=O)N[C@@H](CCCCN)C(N)=O [Compound 8] (X14-[Cha][Cha]RKPNDK-NH2) , what log10 of IC50 is on record? 0.70

For the compound CCCCC(Oc1cccc2ccccc12)C(=O)N[C@@H](CC1CCCCC1)C(=O)N[C@@H](CC1CCCCC1)C(=O)N[C@@H](CCCNC(=N)N)C(=O)N[C@@H](CCCCN)C(N)=O (stereo partly drawn) [Compound 27] (X20-[Cha][Cha]RK-NH2) , what log10 of IC50 is on record? 0.70

For the compound N=C(N)NCCC[C@H](NC(=O)[C@H](CC1CCCCC1)NC(=O)[C@H](CC1CCCCC1)NC(=O)c1ccccc1-c1ccccc1)C(=O)N[C@@H](CCCCN)C(N)=O [Compound 25] ({Benzoyl(2-Ph)}-[Cha][Cha]RK-NH2) , what log10 of IC50 is on record? 1.40
